System: ACHN renal
assay.text: NCI tumour cell line growth inhibition, 48 h; in the data active = GI50 below about 0.43 µM; inactive = the rest
Write down one outcome, taken from active, inactive

COc1ccc(C(=O)c2cc(C)c(OC)c(C)c2)c(OC)c1O = active
CC1(C)C(=O)/C(=C\c2cccnc2)C[C@]2(C)[C@H]3CC[C@@H]4[C@H]5[C@H](C(=O)/C=C/c6cccnc6)CC[C@]5(C(=O)O)CC[C@@]4(C)[C@]3(C)CC[C@@H]12 = inactive
Cc1cc2ncnn2cc1Nc1ncc2c(n1)n(C1CCOCC1)c(=O)n2C = inactive
CCOC(=O)C1CCN(S(=O)(=O)/N=C2/NC(=O)NC2=C(Cl)Cl)CC1 = inactive
COc1cc2oc(-c3ccc(O)cc3)c(OC)c(=O)c2c(O)c1OC = inactive

**Query** What did this assay record as the result for `NC(=O)c1cc(Cl)ccc1NC(=O)/C=C/c1ccccc1` ?
**Result** inactive

**Query** What did this assay record as the result for `COc1ccc(-c2nc3ccccn3c2/C=C/C(=O)c2cc(OC)c(OC)c(OC)c2)cc1OC` ?
**Result** inactive
